System: MDA-MB-231 breast
test-details: NCI tumour cell line growth inhibition, 48 h
outcome-measure: TGI

These recorded examples may help you get a feel for the data.
>  <compound>
Nc1nc(N)c(-c2ccc(Cl)c(Cl)c2)c(CP(Cl)(Cl)(Cl)Br)n1

>  <TGI>
> 100 µM

$$$$
>  <compound>
Cc1ccc(O)c(C2=NNC(c3cccc(Cl)c3)C2)c1 (stereo not given)

>  <TGI>
> 100 µM

$$$$

Bench note, MDA-MB-231 breast: COc1cc(NCCC2CCCCN2)c2ncccc2c1OC (stereo not given) , TGI reads 12.5 µM

Bench note, MDA-MB-231 breast: Nc1ncc2c(n1)-c1ccccc1OC2N1CCOCC1 (stereo not given) , TGI reads > 100 µM

Bench note, MDA-MB-231 breast: COc1ccc2c(c1)C(=O)c1c-2n(CCCCl)c(=O)c2cc(N)ccc12 , TGI reads > 95.7 µM

Bench note, MDA-MB-231 breast: NC(=O)NC(=O)c1cccc(NC(=O)CCl)c1 , TGI reads 8.38 µM

Bench note, MDA-MB-231 breast: CCC(=C(c1ccc(OCCN2CCCC2)cc1)c1ccc(OCCN2CCCC2)cc1)c1ccc(Cl)cc1 , TGI reads 1.11 µM

Bench note, MDA-MB-231 breast: c1ccc(/C(=N\Nc2nc3ccccc3s2)c2ccccn2)cc1 , TGI reads > 100 µM

Bench note, MDA-MB-231 breast: Cc1cnc2[nH]c(-c3ccc(Cl)cc3)cc(=O)c2c1 , TGI reads > 19.9 µM

Bench note, MDA-MB-231 breast: CC(C)CC1NC(=O)CCC(NC(=O)C(Cc2ccc(O)cc2)NC(=O)OCc2ccccc2)C(=O)NC(Cc2ccccc2)C(=O)NC(Cc2ccccc2)NC1=O (stereo not given) , TGI reads > 100 µM

====

Test system: T-47D breast
test-details: NCI tumour cell line growth inhibition, 48 h
outcome-measure: TGI

These recorded examples may help you get a feel for the data.
>  <molecule>
Cc1nn(C(=O)c2ccc(Cl)cc2)c2c1C(c1ccc(Cl)cc1)SC(N)=N2 (centres undefined)

>  <TGI>
> 10 µM

$$$$
>  <molecule>
CCCC(C(=O)Nc1cccc2[nH]cnc12)C(=O)OCC (centres undefined)

>  <TGI>
> 100 µM

$$$$
>  <molecule>
c1ccc2c(c1)[nH]c1c3ccccc3sc21

>  <TGI>
> 100 µM

$$$$

Could you now look at the following molecule, please?
According to the records, this molecule CC(=O)c1cccc(Nc2nc3ccccc3c3[nH]c4ccccc4c23)c1 displays TGI of 33.5 µM

====

System: SF-295 CNS
test-details: NCI tumour cell line growth inhibition, 48 h
log10 of TGI values, listed per item
# log10 transformed; quantity=TGI; unit=µM

These recorded examples may help you get a feel for the data.
>  <molecule>
CC1OC(CC2C=CCc3c(O)c4c(c(O)c32)C(=O)c2ccccc2C4=O)CC(NC(=O)C(F)(F)F)C1O (stereo unspecified)

>  <log10 of TGI>
1.26

$$$$
>  <molecule>
Cn1c(N)c(/C=C/C(=O)Oc2ccccc2)c(=O)n(C)c1=O

>  <log10 of TGI>
1.97

$$$$

According to the records, this molecule S=C1Cc2c(-c3ccccc3)cc(-c3ccc(Cl)cc3)nc2-c2ccccc2N1 displays log10 of TGI of 1.28

According to the records, this molecule Cc1ccc2c(c1)C(O)(c1ccccc1)CCS2 (stereo unspecified) displays log10 of TGI of 1.90

According to the records, this molecule CCCCC[C@H]1C/C=C2/C(=O)C(Cl)=C[C@@H]2C/C=C\CCCC(=O)O1 displays log10 of TGI of 0.18

Hello, the source for this data is PubChem BioAssay (NCI), in case you need it.
